tested-system: HDAC3 (Homo sapiens)
Sequence (O15379 whole entry): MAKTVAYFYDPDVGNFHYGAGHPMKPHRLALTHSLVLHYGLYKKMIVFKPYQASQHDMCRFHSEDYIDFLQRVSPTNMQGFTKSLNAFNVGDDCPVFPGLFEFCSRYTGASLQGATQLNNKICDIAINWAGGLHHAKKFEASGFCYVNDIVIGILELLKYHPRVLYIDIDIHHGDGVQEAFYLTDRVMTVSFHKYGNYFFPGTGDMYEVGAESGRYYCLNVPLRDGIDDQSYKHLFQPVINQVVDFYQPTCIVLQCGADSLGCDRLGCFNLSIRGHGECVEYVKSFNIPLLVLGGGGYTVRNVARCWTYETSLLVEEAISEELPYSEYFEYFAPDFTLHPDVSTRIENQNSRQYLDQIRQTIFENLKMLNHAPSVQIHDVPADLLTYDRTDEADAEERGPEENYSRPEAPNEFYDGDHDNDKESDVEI
Sequence (Q9Y618 395-489 partner limits assumed): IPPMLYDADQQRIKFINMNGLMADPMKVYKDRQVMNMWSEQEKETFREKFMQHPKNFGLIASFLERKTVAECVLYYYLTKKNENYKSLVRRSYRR
protocol-notes: in vitro activity-based HDAC assay
conditions: human HDAC isoform panel, Table 1
readout-type: pIC50
pIC50 here is simply -log10 of the concentration when that concentration is written in mol/L.

Prompt: Give pIC50 for the following molecule: O=C(NO)c1ccc(CN(Cc2cccnc2)S(=O)(=O)c2cc(F)c(F)c(F)c2F)cc1 [Compound I-18]
Completion: 6.43

* * *

tested-system: HDAC4 (Homo sapiens)
Sequence (P56524 whole entry): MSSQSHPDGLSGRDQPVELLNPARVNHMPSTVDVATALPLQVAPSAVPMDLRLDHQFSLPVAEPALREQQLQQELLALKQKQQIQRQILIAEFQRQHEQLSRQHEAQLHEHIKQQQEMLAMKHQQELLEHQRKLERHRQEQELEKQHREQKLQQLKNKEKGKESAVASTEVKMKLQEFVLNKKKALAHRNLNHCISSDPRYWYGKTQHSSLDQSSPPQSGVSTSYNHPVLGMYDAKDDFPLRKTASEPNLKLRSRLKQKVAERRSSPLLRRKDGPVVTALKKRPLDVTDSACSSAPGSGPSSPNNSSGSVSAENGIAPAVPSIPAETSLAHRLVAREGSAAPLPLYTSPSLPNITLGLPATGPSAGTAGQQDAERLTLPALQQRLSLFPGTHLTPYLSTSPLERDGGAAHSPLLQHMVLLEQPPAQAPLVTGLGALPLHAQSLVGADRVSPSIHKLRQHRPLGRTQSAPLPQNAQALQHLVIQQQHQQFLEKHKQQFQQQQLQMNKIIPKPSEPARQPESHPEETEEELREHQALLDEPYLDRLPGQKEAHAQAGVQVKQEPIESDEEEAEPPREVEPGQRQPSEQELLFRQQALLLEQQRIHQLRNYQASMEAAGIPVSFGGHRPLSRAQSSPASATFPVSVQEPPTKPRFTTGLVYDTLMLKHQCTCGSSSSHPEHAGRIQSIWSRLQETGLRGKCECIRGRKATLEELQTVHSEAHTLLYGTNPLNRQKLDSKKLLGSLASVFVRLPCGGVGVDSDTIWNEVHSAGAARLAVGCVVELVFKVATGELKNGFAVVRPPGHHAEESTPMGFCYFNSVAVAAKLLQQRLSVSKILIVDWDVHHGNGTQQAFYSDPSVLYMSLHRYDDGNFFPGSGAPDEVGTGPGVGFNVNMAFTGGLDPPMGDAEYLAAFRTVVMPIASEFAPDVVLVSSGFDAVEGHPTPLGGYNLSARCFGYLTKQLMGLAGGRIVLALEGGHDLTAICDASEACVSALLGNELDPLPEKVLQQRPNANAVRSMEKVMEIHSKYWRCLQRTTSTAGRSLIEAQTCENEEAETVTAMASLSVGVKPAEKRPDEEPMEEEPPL
protocol-notes: in vitro activity-based HDAC assay
conditions: human HDAC isoform panel, Table 1
readout-type: IC50

Worked set:
O=C(NO)c1ccc(CN(C2CC2)S(=O)(=O)c2cc(F)c(F)c(F)c2F)cc1; > 1000 nM
O=C(NO)c1ccc(CN(Cc2cccnc2)S(=O)(=O)c2cc(F)c(F)c(F)c2F)cc1; > 1000 nM

Could you now consider this next compound?
Prompt: Give IC50 for the following compound: `CC(C)N(Cc1ccc(C(=O)NO)cc1F)S(=O)(=O)c1cc(F)c(F)c(F)c1F`
Completion: > 1000 nM
